Where do these numbers come from? They come from patent US20260262643A1.

Listed here are molecules together with their documented Plant response rating, Foxtail, Giant.
- System: foxtail, giant
- testDescription: Test A postemergence
- Format: in vivo, Setaria faberi
- conditionContext: 1000 g ai/ha, Postemergence; 0 to 100 scale

# molecule, Plant response rating, Foxtail, Giant
rows = [
    ("C[C@H]1CN(C(=O)c2cccc(-n3cncn3)c2)c2cc([N+](=O)[O-])ccc2O1 [Compound 49]", 10),
    ("Cc1cccc2c1O[C@@H](C)CN2C(=O)c1cccc(-n2cc(C(F)(F)F)cn2)c1 [Compound 130]", 0),
    ("Cc1cccc2c1O[C@@H](C)CN2C(=O)c1cccc(-n2cc(Cl)cn2)c1 [Compound 132]", 10),
    ("CC1CN(C(=O)c2cccc(-n3cncn3)c2)c2cccc(Br)c2O1 (centres unmarked) [Compound 25]", 90),
    ("Cc1cccc2c1OC(C)CN2C(=O)c1cccc(-n2cncn2)c1 (centres unmarked) [Compound 21]", 90),
]

* * *

- System: soybean
- testDescription: Test C postemergence
- Type: in vivo, Glycine max
- conditionContext: Postemergence, 500 g ai/ha, 10 days, visual 0 to 100 scale (0 no effect, 100 complete control)

# structureSmilesString, assayedSystem, Plant response rating, Soybean
measured = [
    ("Cc1cccc2c1O[C@@H](C)CN2C(=O)c1cc(-n2cnc(C(C)C)n2)cc2occc12", "soybean", 100),
    ("Cc1ccc(-n2cnc(C3(C(F)(F)F)CCC3)n2)cc1C(=O)N1C[C@H](C)Oc2c(Cl)cccc21", "soybean", 100),
    ("COc1ccc(-n2cnc(C(C)C)n2)cc1C(=O)N1C[C@H](C)Oc2c1cccc2C(F)(F)F", "soybean", 100),
]

* * *

- Test system: green foxtail
- testDescription: Test C preemergence
- Type: in vivo, Setaria viridis
- conditionContext: Preemergence, 500 g ai/ha; visual rating after 10 days, 0 to 100 scale (0 no effect, 100 complete control)
Listed here are compounds together with their documented Plant response rating, Foxtail, Green.

# structureSmilesString, assayedSystem, Plant response rating, Foxtail, Green
rows = [
    ("Cc1cn(-c2cccc(C(=O)N3C[C@H](C)Oc4c(C)cccc43)c2)cn1", "green foxtail", 0),
    ("Cc1cc(-n2cnc(C(C)C)n2)cc(C(=O)N2C[C@H](C)Oc3c(Cl)cccc32)c1F", "green foxtail", 100),
    ("COc1cc(C(=O)N2C[C@H](C)Oc3c(Cl)cccc32)cc(-n2cnc(C)n2)c1", "green foxtail", 100),
    ("CCc1ncn(-c2cc3c(c(C(=O)N4C[C@H](C)Oc5c(Cl)cccc54)c2)OCCO3)n1", "green foxtail", 100),
]

* * *

- Test system: foxtail, giant
- testDescription: Test A postemergence
- Type: in vivo, Setaria faberi
- conditionContext: 500 g ai/ha, postemergence, 10 days, visual injury, 0 to 100 scale (0 no effect, 100 complete control)
readout: Plant response rating, Foxtail, Giant

# structureSmilesString, quantitativeResult
rows = [
    ("CCc1ncn(-c2cccc(C(=O)N3C[C@H](C)Oc4c(C)cccc43)c2)n1", 90),
    ("Cc1ccc(-n2cnc(C(C)(C)C)n2)cc1C(=O)N1C[C@H](C)Oc2c(C)cccc21", 90),
    ("COc1ccc(-n2cnc(C)n2)cc1C(=O)N1C[C@H](C)Oc2c(Cl)cccc21", 100),
    ("CC(C)Oc1ccc(-n2cnc(C(C)C)n2)cc1C(=O)N1C[C@H](C)Oc2c(Cl)cccc21", 90),
    ("C[C@H]1CN(C(=O)c2cc(Cl)cc(-n3cncn3)c2)c2cccc(Cl)c2O1", 90),
    ("COc1ccc(-n2cnc(C(C)(C)C)n2)cc1C(=O)N1C[C@H](C)Oc2c(Cl)cccc21", 90),
    ("C[C@H]1CN(C(=O)c2cc(-n3cncn3)ccc2C(F)(F)F)c2cccc(Cl)c2O1", 30),
    ("C[C@H]1CN(C(=O)c2cccc(-n3cnc(Br)n3)c2)c2cccc(Cl)c2O1", 40),
]
